Sourced from the emibetuzumab library of Makowski et al. (2022)

B1: VH:VL chains; a variant is named by its letters at X, in order (parent)
chain 1: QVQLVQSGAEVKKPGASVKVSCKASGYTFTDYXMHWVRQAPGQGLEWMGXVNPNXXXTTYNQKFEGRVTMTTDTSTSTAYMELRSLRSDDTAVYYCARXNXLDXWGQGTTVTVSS
chain 2: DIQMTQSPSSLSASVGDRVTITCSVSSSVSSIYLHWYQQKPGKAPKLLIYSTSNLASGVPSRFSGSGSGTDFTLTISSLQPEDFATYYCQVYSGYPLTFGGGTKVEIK

- Variants of: B1
- protocol summary: yeast display scFab, FACS + sequencing
- condition description: with MET
This is one part of the list. The true hit rate is not given.
measure: antigen binding call

>>> measurement("SETGGFVV")
"no binding"
>>> measurement("YKRESAGY")
"binds"
>>> measurement("DARETFLD")
"no binding"
>>> measurement("VRGGDAVA")
"binds"
